- systemTested: T1, Bfl-1, Q16548
- T1 chain: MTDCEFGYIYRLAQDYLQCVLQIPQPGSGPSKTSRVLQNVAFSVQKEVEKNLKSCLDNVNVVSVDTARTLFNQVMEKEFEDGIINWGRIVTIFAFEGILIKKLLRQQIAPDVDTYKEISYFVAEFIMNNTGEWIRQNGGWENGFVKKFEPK
- procedureText: peptide SPOT array, c-Myc-tagged receptor at 1 uM or 100 nM, anti-c-Myc-Cy3
measuredEndpoint: SPOT signal as a fraction of Bim BH3's signal on the same receptor and array

[1] RYPILENPEILRKTADDFLNRIALTD [CCNH]
[2] PFDCRDYAVVLRKYADKIYNISMKHP [FOLH1B]
[3] KKLKNLEGNEDQRHADEFLLDLGHHE [FUT8]
Query :: Rank the binders listed above in increasing order of SPOT signal as a fraction of Bim BH3's signal on the same receptor and array. # respond with the labels, arranged in the requested order
Result :: 1, 3, 2

[I] DLTDKLVSFYLETYGAELTANVLRDM [PYCARD]
[II] RLRQLGVAKKDGVLSDNFKGKRIVLV [PPAT]
[III] SEIMHSFAKCIEVMGDGCLNNEHFEE [IPO5]
Query :: Place the items in sequence of falling SPOT signal as a fraction of Bim BH3's signal on the same receptor and array. # respond with the labels, arranged in the requested order
Result :: II, III, I

Where do these numbers come from? They come from paper PMC4072508.
